# MIC per entry
# Tested on: MDRAB clinical strain AK29
# Assay type: cell-based, Acinetobacter baumannii
# particulars: 24 h
No end group written: not given here.

>  <substance>
GRFKRFRKKFKKLFKKLSPVIPLLHLG [BMAP-27]

>  <unit_abbrev>
µg/mL

>  <MIC>
4

$$$$
>  <substance>
GWKKWFNRAKKVGKTVGGLAVDHYL-NH2 [NRC12]

>  <unit_abbrev>
µg/mL

>  <MIC>
8

$$$$
>  <substance>
GYNYAKKLANLAKKFANALW-NH2 [GW-H1a]

>  <unit_abbrev>
µg/mL

>  <MIC>
8

$$$$
>  <substance>
FIHHIIGGLFSAGKAIHRLIRRRRR [TP4]

>  <unit_abbrev>
µg/mL

>  <MIC>
16

$$$$
>  <substance>
GWGSFFKKAAHVGKHVGKAALTHYL-NH2 [Pleurocidin]

>  <unit_abbrev>
µg/mL

>  <MIC>
8

$$$$
>  <substance>
GIKIAKKAITIAKKIAKIYW [GW-Q6]

>  <unit_abbrev>
µg/mL

>  <MIC>
8

$$$$
>  <substance>
GAKYAKIIYNYLKKIANALW [GW-A2]

>  <unit_abbrev>
µg/mL

>  <MIC>
8

$$$$

---

# System: MDRAB clinical strain K2
# Format: cell-based, Acinetobacter baumannii
# particulars: 24 h
No end group written: not given here.
Item-by-item account of MBC
experimental_endpoint: MBC (µg/mL)

>  <substance>
GYNYAKKLANLAKKFANALW-NH2 [GW-H1a]

>  <experimental_endpoint>
MBC

>  <measured_value>
16

$$$$
>  <substance>
GRFKRFRKKFKKLFKKLSPVIPLLHLG [BMAP-27]

>  <experimental_endpoint>
MBC

>  <measured_value>
32

$$$$
>  <substance>
GWKKWFNRAKKVGKTVGGLAVDHYL-NH2 [NRC12]

>  <experimental_endpoint>
MBC

>  <measured_value>
32

$$$$
>  <substance>
GIKIAKKAITIAKKIAKIYW [GW-Q6]

>  <experimental_endpoint>
MBC

>  <measured_value>
8

$$$$
>  <substance>
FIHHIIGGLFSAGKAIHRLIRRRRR [TP4]

>  <experimental_endpoint>
MBC

>  <measured_value>
32

$$$$
>  <substance>
GAKYAKIIYNYLKKIANALW [GW-A2]

>  <experimental_endpoint>
MBC

>  <measured_value>
64

$$$$
>  <substance>
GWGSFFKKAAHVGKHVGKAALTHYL-NH2 [Pleurocidin]

>  <experimental_endpoint>
MBC

>  <measured_value>
32

$$$$

---

Listing: MIC of selected substances
# System: MDRAB clinical strain J49
# Type: cell-based, Acinetobacter baumannii
# particulars: 24 h
No end group written: not given here.

>  <substance>
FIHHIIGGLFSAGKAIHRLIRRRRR [TP4]

>  <assayed_system>
MDRAB clinical strain J49

>  <MIC>
16 µg/mL

$$$$
>  <substance>
GIKIAKKAITIAKKIAKIYW [GW-Q6]

>  <assayed_system>
MDRAB clinical strain J49

>  <MIC>
16 µg/mL

$$$$
>  <substance>
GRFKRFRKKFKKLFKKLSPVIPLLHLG [BMAP-27]

>  <assayed_system>
MDRAB clinical strain J49

>  <MIC>
8 µg/mL

$$$$
>  <substance>
GYNYAKKLANLAKKFANALW-NH2 [GW-H1a]

>  <assayed_system>
MDRAB clinical strain J49

>  <MIC>
8 µg/mL

$$$$
>  <substance>
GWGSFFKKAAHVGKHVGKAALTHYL-NH2 [Pleurocidin]

>  <assayed_system>
MDRAB clinical strain J49

>  <MIC>
16 µg/mL

$$$$
>  <substance>
GWKKWFNRAKKVGKTVGGLAVDHYL-NH2 [NRC12]

>  <assayed_system>
MDRAB clinical strain J49

>  <MIC>
16 µg/mL

$$$$
>  <substance>
GAKYAKIIYNYLKKIANALW [GW-A2]

>  <assayed_system>
MDRAB clinical strain J49

>  <MIC>
16 µg/mL

$$$$

---

# System: Acinetobacter baumannii 17,978;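 note: CLSI broth microdilution in 96-well polypropylene plates, MBC taken as lowest concentration giving no growth when clear wells were subcultured on LB agar for 24 h at 37 °C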
# Assay type: cell-based
# particulars: 17,978, 24 h
No end group written: not given here.

>  <substance>
GAKYAKIIYNYLKKIANALW [GW-A2]

>  <qualifier_symbol>
=

>  <MIC (µg/mL)>
32

$$$$
>  <substance>
GYNYAKKLANLAKKFANALW-NH2 [GW-H1a]

>  <qualifier_symbol>
=

>  <MIC (µg/mL)>
32

$$$$
>  <substance>
FIHHIIGGLFSAGKAEHRLIRRRRR [Peptide I16E]

>  <qualifier_symbol>
>

>  <MIC (µg/mL)>
256

$$$$
>  <substance>
GWKKWFNRAKKVGKTVGGLAVDHYL-NH2 [NRC12]

>  <qualifier_symbol>
=

>  <MIC (µg/mL)>
16

$$$$
>  <substance>
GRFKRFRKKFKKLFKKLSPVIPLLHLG [BMAP-27]

>  <qualifier_symbol>
=

>  <MIC (µg/mL)>
16

$$$$
>  <substance>
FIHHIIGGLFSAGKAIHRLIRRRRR [TP4]

>  <qualifier_symbol>
=

>  <MIC (µg/mL)>
16

$$$$
>  <substance>
FIHHIIGGAASAGKAIHRLIRRRRR [L9A/F10A]

>  <qualifier_symbol>
=

>  <MIC (µg/mL)>
64

$$$$
>  <substance>
AAHHIIGGLFSAGKAIHRLIRRRRR [F1A/I2A]

>  <qualifier_symbol>
=

>  <MIC (µg/mL)>
32

$$$$
>  <substance>
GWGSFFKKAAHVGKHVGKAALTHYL-NH2 [Pleurocidin]

>  <qualifier_symbol>
=

>  <MIC (µg/mL)>
16

$$$$
>  <substance>
FIHHIIGGLFSAGKARHRLIRRRRR [Peptide I16R]

>  <qualifier_symbol>
=

>  <MIC (µg/mL)>
128

$$$$
>  <substance>
FIHHIIGGLFSAGKAAHRLIRRRRR [Peptide I16A]

>  <qualifier_symbol>
=

>  <MIC (µg/mL)>
16

$$$$

---

# Tested on: Acinetobacter baumannii 19,606
# Assay type: cell-based
# particulars: 19,606, 24 h
No end group written: not given here.
Collected MBC values appear next to each entry.

>  <substance>
AAHHIIGGLFSAGKAIHRLIRRRRR [F1A/I2A]

>  <MBC (µg/mL)>
16

$$$$
>  <substance>
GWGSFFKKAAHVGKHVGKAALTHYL-NH2 [Pleurocidin]

>  <MBC (µg/mL)>
16

$$$$
>  <substance>
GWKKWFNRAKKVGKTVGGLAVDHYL-NH2 [NRC12]

>  <MBC (µg/mL)>
16

$$$$
>  <substance>
FIAAIIGGLFSAGKAIHRLIRRRRR [H3A/H4A]

>  <MBC (µg/mL)>
64

$$$$
>  <substance>
GIKIAKKAITIAKKIAKIYW [GW-Q6]

>  <MBC (µg/mL)>
16

$$$$

Hello, the source for this data is paper PMC8016998, in case you need it.
